Each record here notes measured self-cleavage.
B1: LINE1-full (parent)
chain: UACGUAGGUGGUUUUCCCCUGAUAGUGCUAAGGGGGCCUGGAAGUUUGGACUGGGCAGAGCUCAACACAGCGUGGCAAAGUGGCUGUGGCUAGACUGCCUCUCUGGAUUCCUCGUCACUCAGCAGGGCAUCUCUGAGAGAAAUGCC

# Variants of: B1
# assay procedure: self-cleavage, relative activity (ratio to wild type); higher = more cleavage; in vitro, sequencing; the parent is a self-cleaving ribozyme
Number only, no unit.

seq: UACGUAGGUGGUUUUCCCCUGGUAGUGCUAAGGGGGCCUGGAAGUUUGGACUGGGCAGAGCUCAACACAGCGUGGCAAAGUGGCUGUGGCUAGACUGCCCCUCUGGAUUCCUCGUCACUCAGCAGGGCAUCUCUGAGAGAAAUGCC [A22G U100C]
self-cleavage: 1.75
--
seq: UACGUAGGUGGUUUUCCCCUGAUAGUGCUAAGGGGGCCUGGAAGUUUGGACUGGGCAGAGCUCUACACUGCGUGGCAAAGUGGCUGUGGCUAGACUGCCUCUCUGGAUUCCUCGUCACUCAGCAGGGCAUCUCUGAGAGAAAUGCC [A64U A69U]
self-cleavage: 0.07
--
seq: UACGUAGGUGGUUUUCCCCUGAUAGUGCUAAGGGGGCCUGGAAGUUUGGACUGGGCAGAGCUCAGCACAGCGUGGCAAAGUGGCUGUGGCUAGACUGCCUCUCUGGAUUCCUCGUCACUCAGCAGGGCAUCUCUGAGUGAAAUGCC [A65G A138U]
self-cleavage: 0.08

Next variant, please.
Short answer for UACGUAGGUGGUUUUCCCCUGAUAGUGCUAAGGGGGCCUGGAAGUUUGUACUGGGCAGAGCUCAACACAGCGUGGCAGAGUGGCUGUGGCUAGACUGCCUCUCUGGAUUCCUCGUCACUCAGCAGGGCAUCUCUGAGAGAAAUGCC [G49U A78G] : self-cleavage was 0.91
